# RUN PARAMETERS: in acetone, 293.15 K
REPORTED PROPERTY: solubility (mole fraction)
Enter a number only.

// Cc1nc2n(c(=O)c1CCN1CCC(c3noc4cc(F)ccc34)CC1)CCCC2 : solubility (mole fraction) value = 0.00166

----------
# RUN PARAMETERS: in acetone, 278.15 K
REPORTED PROPERTY: solubility (mole fraction)
Enter a number only.

// Cc1nc2n(c(=O)c1CCN1CCC(c3noc4cc(F)ccc34)CC1)CCCC2 : solubility (mole fraction) value = 0.000769

----------
# RUN PARAMETERS: in ethanol, 283.15 K
REPORTED PROPERTY: solubility (mole fraction)
Enter a number only.

// Cc1nc2n(c(=O)c1CCN1CCC(c3noc4cc(F)ccc34)CC1)CCCC2 : solubility (mole fraction) value = 0.00107
